system: Mycobacterium tuberculosis Erdman (autoluminescent); experiment: AUC25, normalised area under dose response up to IC25 (three-drug combination) (fraction (0-1)); higher = more potent at low dose; settings: in vitro model: cholesterol-high 0.2 mM; time point: constant (~7 days, model-specific)
readoutKind: AUC25
The response must contain the number and no unit.

Some compounds with known AUC25 results, for comparison:
compound: CC[C@@H](CO)NCCN[C@@H](CC)CO [ethambutol] + CC(=O)NC[C@H]1CN(c2ccc(N3CCOCC3)c(F)c2)C(=O)O1 [linezolid] + O=[N+]([O-])c1cn2c(n1)OC[C@@H](OCc1ccc(OC(F)(F)F)cc1)C2 [pretomanid]
AUC25: 0.0978
//
compound: CC(C)/N=c1\cc2n(-c3ccc(Cl)cc3)c3ccccc3nc-2cc1Nc1ccc(Cl)cc1 [clofazimine] + CC[C@@H](CO)NCCN[C@@H](CC)CO [ethambutol] + O=[N+]([O-])c1cn2c(n1)OC[C@@H](OCc1ccc(OC(F)(F)F)cc1)C2 [pretomanid]
AUC25: 0.102

The reported AUC25 of the compound NNC(=O)c1ccncc1 [isoniazid] + NC(=O)c1cnccn1 [pyrazinamide] + CO[C@H]1/C=C/O[C@@]2(C)Oc3c(C)c(O)c4c(O)c(c(/C=N/N5CCN(C6CCCC6)CC5)c(O)c4c3C2=O)NC(=O)/C(C)=C\C=C\[C@H](C)[C@H](O)[C@@H](C)[C@@H](O)[C@@H](C)[C@H](OC(C)=O)[C@@H]1C [rifapentine] was 0.0744

The reported AUC25 of the compound NNC(=O)c1ccncc1 [isoniazid] + COc1c(N2C[C@@H]3CCCN[C@@H]3C2)c(F)cc2c(=O)c(C(=O)O)cn(C3CC3)c12 [moxifloxacin] + CO[C@H]1/C=C/O[C@@]2(C)Oc3c(C)c(O)c4c(O)c(c(/C=N/N5CCN(C)CC5)c(O)c4c3C2=O)NC(=O)/C(C)=C\C=C\[C@H](C)[C@H](O)[C@@H](C)[C@@H](O)[C@@H](C)[C@H](OC(C)=O)[C@@H]1C [rifampicin] was 0.0802

The reported AUC25 of the compound CC[C@@H](CO)NCCN[C@@H](CC)CO [ethambutol] + NNC(=O)c1ccncc1 [isoniazid] + NC(=O)c1cnccn1 [pyrazinamide] was 0.0628

The reported AUC25 of the compound CC[C@@H](CO)NCCN[C@@H](CC)CO [ethambutol] + O=[N+]([O-])c1cn2c(n1)OC[C@@H](OCc1ccc(OC(F)(F)F)cc1)C2 [pretomanid] + NC(=O)c1cnccn1 [pyrazinamide] was 0.0837

The reported AUC25 of the compound CC(C)/N=c1\cc2n(-c3ccc(Cl)cc3)c3ccccc3nc-2cc1Nc1ccc(Cl)cc1 [clofazimine] + COc1c(N2C[C@@H]3CCCN[C@@H]3C2)c(F)cc2c(=O)c(C(=O)O)cn(C3CC3)c12 [moxifloxacin] + O=[N+]([O-])c1cn2c(n1)OC[C@@H](OCc1ccc(OC(F)(F)F)cc1)C2 [pretomanid] was 0.108
